Documented viability, T/C across a set of compounds
tested on: MDA-MB-468 complex spheroids with HUVEC/MSC, viability; assay: Anticancer human tumor MDA-MB-468 cell line growth inhibition; conditions: second compound 0.316 µM; first compound 0.949 µM; stronger effect = lower value;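 also: spheroids exposed to agents for seven days; 100% = DMSO vehicle control viability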
# number only, unit % dropped from output

Worked examples follow.
>>> observed("NS(=O)(=O)OCC1CC(n2ccc3c(NC4CCc5ccccc54)ncnc32)CC1O (configuration not stated) + NC1CCC(NC2CC2c2ccccc2)CC1")
6.34
>>> observed("O=C(C=Cc1cccc(S(=O)(=O)Nc2ccccc2)c1)NO + NC1CCC(NC2CC2c2ccccc2)CC1")
2.84
>>> observed("CCN(c1cc(-c2ccc(CN3CCOCC3)cc2)cc(C(=O)NCc2c(C)cc(C)[nH]c2=O)c1C)C1CCOCC1 + NC1CC1c1ccc(-c2cccc(O)c2)cc1")
33.7
>>> observed("CCN(c1cc(-c2ccc(CN3CCOCC3)cc2)cc(C(=O)NCc2c(C)cc(C)[nH]c2=O)c1C)C1CCOCC1 + NC1CCC(NC2CC2c2ccccc2)CC1")
88.6
>>> observed("COc1cc(C2c3cc4c(cc3C(OC3OC5COC(C)OC5C(O)C3O)C3COC(=O)C23)OCO4)cc(OC)c1O (configuration not stated) + NC1CC1c1ccc(-c2cccc(O)c2)cc1")
7.32
>>> observed("COc1cc(C2c3cc4c(cc3C(OC3OC5COC(C)OC5C(O)C3O)C3COC(=O)C23)OCO4)cc(OC)c1O (configuration not stated) + NC1CCC(NC2CC2c2ccccc2)CC1")
12.5

Next item in the queue.
According to the records, this compound NS(=O)(=O)OCC1CC(n2ccc3c(NC4CCc5ccccc54)ncnc32)CC1O (configuration not stated) + NC1CC1c1ccc(-c2cccc(O)c2)cc1 displays viability, T/C of 3

---

test system: MDA-MB-468 complex spheroids with HUVEC/MSC, viability; assay: Anticancer human tumor MDA-MB-468 cell line growth inhibition; conditions: second compound 0.316 µM; first compound 0.1 µM; stronger effect = lower value;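 also: spheroids exposed to agents for seven days; 100% = DMSO vehicle control viability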
Measured parameter: viability, T/C (%)
# number only, unit % dropped from output

Worked examples follow.
>>> observed("Nc1ncn(C2CC(O)C(CO)O2)c(=O)n1 (centres undefined) + NC1CC1c1ccc(-c2cccc(O)c2)cc1")
11.8
>>> observed("CC[C@@]1(O)C(=O)OCc2c1cc1n(c2=O)Cc2cc3c(CN(C)C)c(O)ccc3nc2-1 + NC1CC1c1ccc(-c2cccc(O)c2)cc1")
3.89
>>> observed("CC1(C)CCC(CN2CCN(c3ccc(C(=O)NS(=O)(=O)c4ccc(NCC5CCOCC5)c([N+](=O)[O-])c4)c(Oc4cnc5[nH]ccc5c4)c3)CC2)=C(c2ccc(Cl)cc2)C1 + NC1CC1c1ccc(-c2cccc(O)c2)cc1")
108

Next item in the queue.
# viability, T/C measured on MDA-MB-468 complex spheroids with HUVEC/MSC, viability for item CC1COCCN1c1cc(-c2ccnn2C)c2ccnc(-c3ccn[nH]3)c2n1 (centres undefined) + NC1CCC(NC2CC2c2ccccc2)CC1 = 23

---

test system: MDA-MB-468 complex spheroids with HUVEC/MSC, viability; test: Anticancer human tumor MDA-MB-468 cell line growth inhibition; details: second compound 10 µM; first compound 0.316 µM; stronger effect = lower value;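 also: spheroids exposed to agents for seven days; 100% = DMSO vehicle control viability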
Measured parameter: viability, T/C (%)
# number only, unit % dropped from output

Worked examples follow.
>>> observed("COc1cc(Nc2ncc3c(n2)-c2ccc(Cl)cc2C(c2c(F)cccc2OC)=NC3)ccc1C(=O)O + NC1CCC(NC2CC2c2ccccc2)CC1")
8.23
>>> observed("CC(C)c1c(-c2ccccc2)nc2c(C#N)c[nH]n2c1=O + NC1CCC(NC2CC2c2ccccc2)CC1")
70.2
>>> observed("CC1COCCN1c1cc(C2(S(C)(=N)=O)CC2)nc(-c2ccnc3[nH]ccc23)n1 (centres undefined) + NC1CC1c1ccc(-c2cccc(O)c2)cc1")
42

Next item in the queue.
According to the records, this compound COc1ccc([C@@H](O)c2cc(-c3ncnc4cc(N5CCOCC5)ccc34)c(F)cc2Cl)nn1 + NC1CC1c1ccc(-c2cccc(O)c2)cc1 displays viability, T/C of 45.1
